molecular target: dopamine transporter (DAT) (Rattus norvegicus, UniProt P23977); assay: Dopamine reuptake ([^3H]dopamine uptake) inhibition in rat brain synaptosomes; conditions: read-out: DA Uptake Emax (% I ± SD)
Sequence (P23977 whole entry): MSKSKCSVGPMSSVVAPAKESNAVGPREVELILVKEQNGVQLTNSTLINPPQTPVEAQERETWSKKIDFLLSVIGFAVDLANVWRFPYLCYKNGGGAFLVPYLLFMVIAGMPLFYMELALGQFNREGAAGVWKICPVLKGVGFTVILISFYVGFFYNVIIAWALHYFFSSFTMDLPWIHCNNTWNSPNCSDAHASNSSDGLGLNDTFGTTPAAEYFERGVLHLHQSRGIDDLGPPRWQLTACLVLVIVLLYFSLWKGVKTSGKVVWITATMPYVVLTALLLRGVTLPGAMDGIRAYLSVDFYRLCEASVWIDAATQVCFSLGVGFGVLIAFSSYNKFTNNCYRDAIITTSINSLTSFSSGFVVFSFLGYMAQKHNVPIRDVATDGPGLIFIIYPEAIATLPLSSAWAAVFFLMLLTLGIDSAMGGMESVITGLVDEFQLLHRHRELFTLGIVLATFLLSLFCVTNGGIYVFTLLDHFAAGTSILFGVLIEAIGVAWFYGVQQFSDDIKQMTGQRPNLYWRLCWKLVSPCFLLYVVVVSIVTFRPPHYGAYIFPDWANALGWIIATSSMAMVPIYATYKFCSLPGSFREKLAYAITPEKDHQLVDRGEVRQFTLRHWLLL
measurement-name: Emax (%)
The answer is to be given in %; state only the numeric part.

Which value of Emax has been reported for c1ccc(CCC(Nc2nc(-c3ccc4nccn4c3)nc3ccccc23)c2ccccc2)cc1 (centres unmarked) [compound 166] in the records?
68

Which value of Emax has been reported for c1ccc(C(Nc2nc(-c3ccc4[nH]ccc4c3)nc3ccccc23)c2ccccc2)cc1 [compound 13] in the records?
71

Which value of Emax has been reported for c1ccc(C(Nc2nc(-c3ccc4nccn4c3)nc3ccccc23)c2ccccc2)cc1 [compound 86] in the records?
70

Which value of Emax has been reported for c1ccc(C(CNc2nc(-c3cnc4nccn4c3)nc3ccccc23)c2cccnc2)cc1 (centres unmarked) [compound 134] in the records?
72

Which value of Emax has been reported for c1ccc(C(CNc2nc(-c3ccc4[nH]nnc4c3)nc3ccccc23)c2ccccc2)cc1 [compound 63] in the records?
72

Which value of Emax has been reported for Cc1cc2nccn2cc1-c1nc(NCC(c2cccnc2)c2ccc[nH]2)c2ccccc2n1 (centres unmarked) [compound 156] in the records?
68

Where do the numbers come from? From patent US9873702B2.
